# Tested on: HCT-15 colon
# protocolDetails: NCI tumour cell line growth inhibition, 48 h
Peptide text beside a SMILES is read from it. * marks the point of attachment. X34 = O=C(c1ccc(-c2ccc(Cl)cc2Cl)o1)*
measuredParameter: TGI

Illustrative cases are given below, each with its answer.
IN: Given the compound COCN1C(=N)C(C(=O)OC(C)(C)C)=C2C=C(O)C=CC21C (stereo not given) , what is its reported TGI?
OUT: 27.5 µM

IN: Given the compound O=C1CCCCN1 , what is its reported TGI?
OUT: > 1120 µM

IN: Given the compound Fc1ccc(-c2ncn(CCCN3CCOCC3)c2-c2ccncc2)cc1 , what is its reported TGI?
OUT: > 25 µM

IN: Given the compound COn1oc(=O)c2ccccc21 , what is its reported TGI?
OUT: > 100 µM

IN: Given the compound CCCCc1n(Cc2ccc3ccccc3n2)cc[n+]1Cc1ccc2ccccc2n1 , what is its reported TGI?
OUT: 31.5 µM

IN: Given the compound CCOC(=O)C(NC(=O)c1cccc(Cl)c1)(Nc1ccc(S(=O)(=O)Nc2cc(C)nc(C)n2)cc1)C(F)(F)F (stereo not given) , what is its reported TGI?
OUT: > 100 µM

Further cases:
IN: Given the compound COC(=O)C(CC(C)C)NC(=O)C(Cc1ccccc1)NC(=O)C1CCCN1C(=O)C(CO)NC(=O)c1ccc(-c2ccc(Cl)cc2Cl)o1 (stereo not given) (X34-SPFL-OMe; configuration not given here) , what is its reported TGI?
OUT: 72.6 µM

IN: Given the compound C=CCCCN1CCCCC1=S , what is its reported TGI?
OUT: > 100 µM

IN: Given the compound CCOC(=O)/C(=C\c1cn(C(C)=O)c2ccccc12)P(C)(=O)OCC (stereo not given) , what is its reported TGI?
OUT: > 100 µM

IN: Given the compound CCc1[nH]nc(C(N)=O)c1N=NN(C)C , what is its reported TGI?
OUT: > 100 µM

---

Reported TGI values for a set of molecules
# System: COLO 205 colon
# protocolDetails: NCI tumour cell line growth inhibition, 48 h

Illustrative cases are given below, each with its answer.
IN: Given the molecule CN(C)/C=C/c1c2c(nc3ccccc13)C(=O)c1cccnc1C2=O , what is its reported TGI?
OUT: 5.55 µM

IN: Given the molecule COc1ccccc1/C=N/Nc1nnc2c3ccccc3c3ncccc3c2n1 , what is its reported TGI?
OUT: > 100 µM

IN: Given the molecule Cc1cccc2c(NCCN(C)C)c3cccc(C(=O)NCCN(C)C)c3nc12 , what is its reported TGI?
OUT: 1.61 µM

IN: Given the molecule COc1ccc2nc3c(cc2c1)C(=O)CC(c1ccccc1)C3 (configuration not stated) , what is its reported TGI?
OUT: > 100 µM

IN: Given the molecule CCN(CCO)CCCC(C)Nc1ccnc2cc(Cl)ccc12 (configuration not stated) , what is its reported TGI?
OUT: > 100 µM

Further cases:
IN: Given the molecule CC(ON1[C@](C)(c2ccccc2)CC[C@@]1(C)c1ccccc1)c1ccccc1 (some centres not stated) , what is its reported TGI?
OUT: > 100 µM

IN: Given the molecule O=C(c1ccccc1)N(CCCCNC(=O)C(F)(F)F)CCCNC(=O)C(F)(F)F , what is its reported TGI?
OUT: > 100 µM

IN: Given the molecule COc1c(C)c(OC)c(C(=O)CC(C)C)c(OC)c1C , what is its reported TGI?
OUT: > 100 µM

IN: Given the molecule CNC(=O)N1CN(c2ccccc2)C2(CCN(Cc3ccccc3)CC2)C1=O , what is its reported TGI?
OUT: > 100 µM

---

# Tested on: MDA-MB-435
# protocolDetails: NCI tumour cell line growth inhibition, 48 h
Reported TGI values for a set of compounds
Expressed in µM, but write only the number.

IN: Given the compound C1=CCC[C@@H]2CN3CCCC/C=C\CCCC[C@H]4C[C@H](CN(CCCCCCCC1)C4)[C@H]2CC3 , what is its reported TGI?
OUT: 15.7

IN: Given the compound Cc1nc(-n2nc(-c3ccccc3)cc2-c2ccccc2)sc1C(=O)/C=C/c1ccc([N+](=O)[O-])cc1 , what is its reported TGI?
OUT: 43.5

Shift focus to the following entry.
IN: Given the compound CCOC(=O)c1c2c(n3ccc(NC(=O)CCN4CCCCC4)cc13)C(=O)c1ncccc1C2=O , what is its reported TGI?
OUT: 2.47

---

Reported TGI values for a set of compounds
# System: DMS 273 small cell lung
# protocolDetails: NCI tumour cell line growth inhibition, 48 h

IN: Given the compound CCCCCCCC(=O)OC[C@H](C[As](=O)(O)O)OC(=O)CCCCCCC , what is its reported TGI?
OUT: 24 µM

IN: Given the compound Cc1ccc(/C=N/NS(=O)(=O)c2ccccc2)cc1C , what is its reported TGI?
OUT: > 100 µM

IN: Given the compound CN(C)CCN(C)C(=O)c1cccc2cccc(C(=O)O)c12 , what is its reported TGI?
OUT: > 100 µM

---

# Test system: MDA-N
# protocolDetails: NCI tumour cell line growth inhibition, 48 h
Reported TGI values for a set of compounds

Illustrative cases are given below, each with its answer.
IN: Given the compound CSc1nc(-c2ccccc2)nc(C(C#N)C#N)n1 , what is its reported TGI?
OUT: > 100 µM

IN: Given the compound c1cc(C2=NCCO2)c2ccsc2c1 , what is its reported TGI?
OUT: > 100 µM

IN: Given the compound CC(C)=NOC(=O)OC[C@H]1O[C@@H](n2cnc3c(N)ncnc32)C(O)C1O (some centres not stated) , what is its reported TGI?
OUT: > 100 µM

IN: Given the compound CC[C@@]1(O)C[C@H](OC2CC(N(C)C)C(OC3CC(O)C(OC4CCC(=O)C(C)O4)C(C)O3)C(C)O2)c2c(cc3c(c2O)C(=O)c2c(O)cccc2C3=O)C1C(=O)OC (some centres not stated) , what is its reported TGI?
OUT: 0.149 µM

IN: Given the compound OCCN(CCO)c1nc(N2CCCCC2)c2nc(N(CCO)CCO)nc(N3CCCCC3)c2n1 , what is its reported TGI?
OUT: > 100 µM

Shift focus to the following entry.
IN: Given the compound CC(=O)OC12CC[N+]3(C)CCCCC3C1=Nc1ccccc12 (configuration not stated) , what is its reported TGI?
OUT: > 100 µM

---

# Tested on: M14 melanoma
# protocolDetails: NCI tumour cell line growth inhibition, 48 h; in the data active = GI50 below about 0.43 µM; inactive = the rest
Reply using exactly one outcome from label 1 = active, label 0 = inactive

Known results for compounds:
IN: Look up the recorded call for COc1cc2c(cc1O)c(=O)n(CCN(C)C)c1c3cc4c(cc3ncc21)OCO4 in this test.
OUT: label 1

IN: Look up the recorded call for COc1ccc(C2=NN(C(C)=O)C(c3ccc(Oc4ccnc5cc(Cl)ccc45)c(OC)c3)C2)cc1 (stereo not given) in this test.
OUT: label 0

IN: Look up the recorded call for CC1(C)CCc2c(c(N=Nc3ccccc3F)c3ccccc3c2O)O1 in this test.
OUT: label 0

IN: Look up the recorded call for CC1=C2[C@@H](CC1)[C@]1(C)O[C@@](C(C)C)(C[C@H]1OC(=O)CO)[C@H]2OC(=O)CCCc1ccccc1 in this test.
OUT: label 0

IN: Look up the recorded call for C1C[OH+]CCNCC[OH+]CC[OH+]CCN1.N.[Cl-].[Pt+4] in this test.
OUT: label 0

IN: Look up the recorded call for CCN1C(=O)N(CC)C2C1NN=c1s/c(=C\c3ccc(C(F)(F)F)cc3)c(=O)n12 (stereo not given) in this test.
OUT: label 1

Further cases:
IN: Look up the recorded call for C/C(CC(C)(C)N1CC1)=N\NC(=O)Nc1cccc2ccccc12 in this test.
OUT: label 0

---

# Test system: HCC-2998 colon
# protocolDetails: NCI tumour cell line growth inhibition, 48 h
Reported TGI values for a set of compounds

Illustrative cases are given below, each with its answer.
IN: Given the compound CC1(C)CCc2c(c(N=Nc3ccccc3F)c3ccccc3c2O)O1 , what is its reported TGI?
OUT: > 100 µM

IN: Given the compound C=CCOc1ccc(N)c([N+](=O)[O-])c1 , what is its reported TGI?
OUT: > 100 µM

IN: Given the compound COc1ccc([Se][Se]c2ccc(OC)cc2OC)c(OC)c1 , what is its reported TGI?
OUT: > 100 µM

IN: Given the compound CN/N=C(\C(=O)Nc1ccc(C(F)(F)F)cc1[N+](=O)[O-])C(c1cnc2ccc([N+](=O)[O-])cc2n1)[N+](=O)[O-] (stereo not given) , what is its reported TGI?
OUT: 84.8 µM

Shift focus to the following entry.
IN: Given the compound COc1ccc(-c2oc3c(OC)c(OC)c(OC)c(O)c3c(=O)c2OC)cc1O , what is its reported TGI?
OUT: 8.64 µM

---

Reported TGI values for a set of compounds
# System: RXF 393 renal
# protocolDetails: NCI tumour cell line growth inhibition, 48 h
Expressed in µM, but write only the number.

Illustrative cases are given below, each with its answer.
IN: Given the compound C#Cc1cccc(NC(=O)c2cccc(NC(=O)CCl)c2)c1 , what is its reported TGI?
OUT: 29.8

IN: Given the compound S=C1SCN(Cc2ccccc2)CN1Cc1ccccc1 , what is its reported TGI?
OUT: 6.32

IN: Given the compound CC1(C)N=c2cc3c(cc2N1c1ccc(Cl)cc1)=Nc1ccccc1N3c1ccc(Cl)cc1 , what is its reported TGI?
OUT: 5.77

Shift focus to the following entry.
IN: Given the compound O=c1oc2cc(O)ccc2c2oc3cc(O)ccc3c12 , what is its reported TGI?
OUT: 124
